Source of measurements: ChEMBL document CHEMBL1201862

# Tested on: SF-268
# Experiment Notes: NCI tumour cell line growth inhibition, 48 h
Active and inactive are the calls of the source. Cut-off read from the data, not from the text of the source: active = GI50 up to about 1.1 µM and inactive = higher.
Possible outcomes: active, inactive

{"Compound": "CC1=C2[C@@H](c3ccccc3)C3C=CC2(C=C3C(F)(F)F)N(C(=O)NC2CCCCC2)C1=O (stereo partly specified)", "Class Name": "inactive"}
{"Compound": "Cc1cc2c(c(N)c1C)C(=O)c1ccccc1C2=O", "Class Name": "inactive"}
{"Compound": "Nc1nc(Cl)cc(NCC2(CO)COC2)n1", "Class Name": "inactive"}
{"Compound": "CCOC(=O)c1c(C)n(Cc2ccc(Cl)cc2Cl)c2c1cc(O)c1[nH]c3c(c12)CCCC3", "Class Name": "inactive"}
{"Compound": "CN1CCC2(c3ccccc3)CC(=O)/C(=C/c3ccc(Cl)c(Cl)c3)C1C2.[O-][Cl+3]([O-])([O-])O (stereo unspecified)", "Class Name": "inactive"}
{"Compound": "N/C(S)=N/N=C/c1ccc(O)cn1", "Class Name": "inactive"}
{"Compound": "O=C(O)CCC1CCc2cccc3occ1c23 (stereo unspecified)", "Class Name": "inactive"}
{"Compound": "COc1cc2cc(c1Cl)N(C)C(=O)C[C@H](OC(=O)[C@H](C)N(C)C(C)=O)[C@]1(C)O[C@H]1[C@H](C)[C@@H]1C[C@@](O)(NC(=O)O1)[C@H](OC)/C=C/C=C(/C)C2", "Class Name": "active"}
{"Compound": "Cc1ccc(S(=O)(=O)NCCSCCNS(=O)(=O)c2ccc(C)cc2)cc1", "Class Name": "inactive"}
{"Compound": "CCN(CC)CCc1c2c(nc3ccccc13)C(=O)c1cccnc1C2=O", "Class Name": "inactive"}
{"Compound": "CCOC(=O)C1(Cc2ccccc2)Cc2cc3c(cc2C1)CCC3", "Class Name": "inactive"}

---

# Tested on: HOP-92
# Experiment Notes: NCI tumour cell line growth inhibition, 48 h
The source made the active and inactive calls. Rule as the data show it: active = GI50 up to about 1.1 µM and inactive = higher.
# GI50 listing for each entry below
Attribute Measured: GI50

{"Compound": "COc1ccc(N(C(=O)OC(C)(C)C)[C@@H]2C(C)=C[C@H]([S@@+]([O-])c3ccc(C)cc3)[C@@H]3C(=O)N(C)C(=O)[C@@H]32)cc1", "Study System": "HOP-92", "Value Observed": "17.7 µM (inactive)"}
{"Compound": "C/C=C(/C)C(=O)O[C@H]1C(C)=C[C@]23C(=O)[C@@H](C=C(COC(C)=O)[C@@H](O)[C@]12O)[C@H]1[C@@H](C[C@H]3C)[C@@]1(C)OC(=O)/C(C)=C\\C", "Study System": "HOP-92", "Value Observed": "1.25 µM (inactive)"}
{"Compound": "CC(NNC(=O)c1cc[n+]([BH2-]C#N)cc1)c1ccccc1 (stereo unspecified)", "Study System": "HOP-92", "Value Observed": "> 100 µM (inactive)"}
{"Compound": "COc1cc(C2c3cc4c(cc3OC(NCCc3ccccc3)C2C)OCO4)cc(OC)c1OC (stereo unspecified)", "Study System": "HOP-92", "Value Observed": "4.67 µM (inactive)"}
{"Compound": "Cn1cc(C(=O)c2ccccc2)ccc1=O", "Study System": "HOP-92", "Value Observed": "> 100 µM (inactive)"}
{"Compound": "Cc1[nH]nc(-c2ccon2)c1N=O", "Study System": "HOP-92", "Value Observed": "14.2 µM (inactive)"}
